Overview of recorded IC50 for various molecules
target: GABAA receptor ([35S]-TBPS binding, rat brain cortical membranes); assay: Steroid inhibition of [35S]-TBPS binding (radioligand displacement); conditions: 3 nM [35S]-TBPS, in the presence of 5 μM GABA

molecule	IC50
COC[C@]12CC[C@@](C)(O)C[C@H]1CC[C@H]1[C@@H]3CC[C@H](C(=O)Cn4cc5ccccc5n4)[C@@]3(C)CC[C@@H]12	< 10 nM
COC[C@]12CC[C@@](C)(O)C[C@H]1CC[C@@H]1[C@@H]2CC[C@]2(C)C(C(=O)Cn3nnnc3C)CC[C@@H]12 (some centres unmarked)	100 to 500 nM
CC(C)OC[C@]12CC[C@@](C)(O)C[C@H]1CC[C@H]1[C@@H]3CC[C@H](C(=O)Cn4nc5ccc(F)c(F)c5n4)[C@@]3(C)CC[C@@H]12	< 10 nM
CC(C)OC[C@]12CC[C@@](C)(O)C[C@H]1CC[C@H]1[C@@H]3CC[C@H](C(=O)Cn4ncnn4)[C@@]3(C)CC[C@@H]12	< 10 nM
COC[C@]12CC[C@@](C)(O)C[C@H]1CC[C@H]1[C@@H]3CC[C@H](C(=O)Cn4ncc5cc(F)ccc54)[C@@]3(C)CC[C@@H]12	< 10 nM
COC[C@]12CC[C@@](C)(O)C[C@H]1CC[C@H]1[C@@H]3CC[C@H](C(=O)Cn4cc(SC)cn4)[C@@]3(C)CC[C@@H]12 [Compound 21]	< 10 nM
CCOC(=O)c1cn(CC(=O)[C@H]2CC[C@H]3[C@@H]4CC[C@H]5C[C@](C)(O)CC[C@]5(COC)[C@H]4CC[C@]23C)nn1	100 to 500 nM
COC[C@]12CC[C@@](C)(O)C[C@@H]1CC[C@H]1[C@@H]3CC[C@H](C(=O)Cn4cc5cc(F)ncc5n4)[C@@]3(C)CC[C@@H]12	100 to 500 nM
COC[C@]12CC[C@@](C)(O)C[C@H]1CC[C@H]1[C@@H]3CC[C@H](C(=O)Cn4cc(N)cn4)[C@@]3(C)CC[C@@H]12	10 to 50 nM
COC[C@]12CC[C@@](C)(O)C[C@H]1CC[C@H]1[C@@H]3CC[C@H](C(=O)Cn4nc5ccc(Cl)c(F)c5n4)[C@@]3(C)CC[C@@H]12	< 10 nM
CCOc1cnn(CC(=O)[C@H]2CC[C@H]3[C@@H]4CC[C@H]5C[C@](C)(O)CC[C@]5(COC)[C@H]4CC[C@]23C)c1	100 to 500 nM
COC[C@]12CC[C@@](C)(O)C[C@@H]1CC[C@H]1[C@@H]3CC[C@H](C(=O)Cn4ncc(C(N)=O)n4)[C@@]3(C)CC[C@@H]12	100 to 500 nM
COC[C@]12CC[C@@](C)(O)C[C@@H]1CC[C@H]1[C@@H]3CC[C@H](C(=O)Cn4cc5ccncc5n4)[C@@]3(C)CC[C@@H]12	10 to 50 nM
COC[C@]12CC[C@@](C)(O)C[C@@H]1CC[C@H]1[C@@H]3CC[C@H](C(=O)Cn4cc(OC)cn4)[C@@]3(C)CC[C@@H]12	100 to 500 nM
COC[C@]12CC[C@@](C)(O)C[C@H]1CC[C@H]1[C@@H]3CC[C@H](C(=O)Cn4cc([S+](C)[O-])cn4)[C@@]3(C)CC[C@@H]12 (some centres unmarked) [Compound 22]	100 to 500 nM
COC[C@]12CC[C@@](C)(O)C[C@@H]1CC[C@H]1[C@@H]3CC[C@H](C(=O)Cn4nc5cc(Cl)cnc5n4)[C@@]3(C)CC[C@@H]12	< 10 nM
COC[C@]12CC[C@@](C)(O)C[C@@H]1CC[C@H]1[C@@H]3CC[C@H](C(=O)Cn4cnc(F)c4)[C@@]3(C)CC[C@@H]12	100 to 500 nM
COC[C@]12CC[C@@](C)(O)C[C@H]1CC[C@H]1[C@@H]3CC[C@H](C(=O)Cn4ncc5ccc(F)cc54)[C@@]3(C)CC[C@@H]12	< 10 nM
COC[C@]12CC[C@@](C)(O)C[C@@H]1CC[C@H]1[C@@H]3CC[C@H](C(=O)Cn4ncc(C(=O)O)n4)[C@@]3(C)CC[C@@H]12	> 500 nM
COC[C@]12CC[C@@](C)(O)C[C@H]1CC[C@H]1[C@@H]3CC[C@H](C(=O)Cn4nnnc4C)[C@@]3(C)CC[C@@H]12	100 to 500 nM
COC[C@]12CC[C@@](C)(O)C[C@@H]1CC[C@H]1[C@@H]3CC[C@H](C(=O)Cn4ncc(CO)n4)[C@@]3(C)CC[C@@H]12	> 500 nM
COC[C@]12CC[C@@](C)(O)C[C@H]1CC[C@H]1[C@@H]3CC[C@H](C(=O)Cn4nc5ccc(OC)cc5n4)[C@@]3(C)CC[C@@H]12	< 10 nM
COC[C@]12CC[C@@](C)(O)C[C@@H]1CC[C@H]1[C@@H]3CC[C@H](C(=O)Cn4ncc5cccnc54)[C@@]3(C)CC[C@@H]12	10 to 50 nM
